Kindly state 1-h% Mean Knockdown ± SEM, Synergist Alone for each of the entries shown.
# System: Aedes aegypti
# assay-method-text: Co-toxicity assay with permethrin (topical)
# cond: 2 μg synergist per Ae. aegypti
# Description: For Ae. aegypti, synergism assays were performed similar to the topical applications described previously, with the following modifications: 2 doses (2 µg/mosquito and 10 µg/mosquito) of each monoterpenoid were applied as synergists, similar to previous studies exploring the synergistic potential of natural products in combination with an intermediate dose-level of insecticide alone. […]

Reference set, count: 3
CC12CCC(C1)C(C)(C)C2=O (stereo not shown) ... 0 ± 0%
CCCCOCCOCCOCc1cc2c(cc1CCC)OCO2 [PBO, piperonyl butoxide, reference compound] ... 7.5 ± 2.5%
C=C(C)[C@@H]1CC=C(C)C(=O)C1 ... 5 ± 5%

Note: attention shifts to another entry.
stdin: Name the reported 1-h% Mean Knockdown ± SEM, Synergist Alone value associated with the molecule CC(C)[C@@H]1CC[C@@H](C)CC1=O
stdout: 7.5 ± 4.8%

###

# System: Musca domestica
# assay-method-text: Co-toxicity assay with permethrin (topical)
# Type: in vivo
# cond: near-sublethal synergist dose + permethrin; >+20 potentiation, <−20 antagonism, −20 to +20 additive
Kindly state 24-h mortality Co-Toxicity Factor for each of the entries shown.
Give bare numbers.

CC(C)[C@@H]1CC[C@@H](C)CC1=O [Menthone, L-menthone] ... 48.4
CCCCOCCOCCOCc1cc2c(cc1CCC)OCO2 [PBO, piperonyl butoxide, reference compound] ... 55.9
C=C(C)[C@@H]1CC=C(C)C(=O)C1 [Carvone, L-carvone] ... 65.6

Note: attention shifts to another entry.
stdin: Please provide the recorded 24-h mortality Co-Toxicity Factor for CC12CCC(C1)C(C)(C)C2=O [Fenchone, L-fenchone] , tested on Musca domestica.
stdout: 63.4

###

# Test system: Aedes aegypti
# assay-method-text: Co-toxicity assay with permethrin (topical)
# cond: 10 μg synergist + permethrin 0.6 ng/mosquito
Kindly state 1-h% Mean Knockdown ± SEM, Mixture for each of the entries shown.
Answers are plain numbers, in %.

Reference set, count: 3
C=C(C)[C@@H]1CC=C(C)C(=O)C1 ... 100
CCCCOCCOCCOCc1cc2c(cc1CCC)OCO2 [PBO, piperonyl butoxide, reference compound] ... 60
CC12CCC(C1)C(C)(C)C2=O (stereo not shown) ... 100

stdin: Name the reported 1-h% Mean Knockdown ± SEM, Mixture value associated with the compound CC(C)[C@@H]1CC[C@@H](C)CC1=O
stdout: 100

###

# Test system: Aedes aegypti
# assay-method-text: Co-toxicity assay with permethrin (topical)
# cond: 2 μg synergist per Ae. aegypti
metric: 24-h% Mean Mortality ± SEM, Synergist Alone (%)
Give bare numbers, in %.

C=C(C)[C@@H]1CC=C(C)C(=O)C1 [Carvone, L-carvone] ... 5
CC(C)[C@@H]1CC[C@@H](C)CC1=O [Menthone, L-menthone] ... 5
CCCCOCCOCCOCc1cc2c(cc1CCC)OCO2 [PBO, piperonyl butoxide, reference compound] ... 12.5

Note: attention shifts to another entry.
stdin: Please provide the recorded 24-h% Mean Mortality ± SEM, Synergist Alone for CC12CCC(C1)C(C)(C)C2=O [Fenchone, L-fenchone] , tested on Aedes aegypti.
stdout: 2.5

###

# Tested on: Musca domestica
# assay-method-text: Co-toxicity assay with permethrin (topical)
# Type: in vivo
# cond: 10.2 μg PBO, 70 μg carvone, 190 μg menthone, 80 μg fenchone per fly
Kindly state 24-h% Mean Mortality ± SEM, Synergist Alone for each of the entries shown.
Give bare numbers, in %.

Provide 24-h% Mean Mortality ± SEM, Synergist Alone values for the following items, in order.
1. CC12CCC(C1)C(C)(C)C2=O [Fenchone, L-fenchone]
2. CCCCOCCOCCOCc1cc2c(cc1CCC)OCO2 [PBO, piperonyl butoxide, reference compound]
3. C=C(C)[C@@H]1CC=C(C)C(=O)C1 [Carvone, L-carvone]
4. CC(C)[C@@H]1CC[C@@H](C)CC1=O [Menthone, L-menthone]

stdout:
[0, 6, 0, 0]

###

Kindly state 1-h knockdown Co-Toxicity Factor for each of the entries shown.
# System: Musca domestica
# assay-method-text: Co-toxicity assay with permethrin (topical)
# Assay type: in vivo
# cond: near-sublethal synergist dose + permethrin; >+20 potentiation, <−20 antagonism, −20 to +20 additive
# Experimental: […]. Each dose was formulated in a total volume of 1.5 mL of acetone. A dose of permethrin that produced approximately 50% mortality (18 ng) was used as the treatment. Female flies were sorted into groups of 20 per synergism assay and dosed as previously mentioned (i.e., the same way as in the topical toxicity assays). Flies were assessed for mortality at 24 h.
Numbers only.

Reference set, count: 3
CC12CCC(C1)C(C)(C)C2=O (stereo not shown) ... 24.0
CC(C)[C@@H]1CC[C@@H](C)CC1=O ... 12.6
C=C(C)[C@@H]1CC=C(C)C(=O)C1 ... 3.2

Note: attention shifts to another entry.
stdin: Name the reported 1-h knockdown Co-Toxicity Factor value associated with the compound CCCCOCCOCCOCc1cc2c(cc1CCC)OCO2 [PBO, piperonyl butoxide, reference compound]
stdout: 16.2

###

Kindly state LD90 (95% CI) for each of the entries shown.
# System: Musca domestica
# cond: 24 h, topical, adult females, susceptible strain

Reference set, count: 2
CC1(C)C(C=C(Cl)Cl)C1C(=O)OCc1cccc(Oc2ccccc2)c1 (stereo not shown) [Permethrin, reference compound] ... 1.5 (1.4–1.7) a ng/mg body weight
C=C(C)[C@@H]1CC=C(C)C(=O)C1 [Carvone, L-carvone] ... 5600 (5300–5900) b ng/mg body weight

Note: attention shifts to another entry.
stdin: Please provide the recorded LD90 (95% CI) for CC(C)[C@@H]1CC[C@@H](C)CC1=O [Menthone, L-menthone] , tested on Musca domestica.
stdout: 8800 (8400–9400) c ng/mg body weight

###

# System: Aedes aegypti
# cond: 24 h, topical, adult females, susceptible strain
Kindly state LD90 (95% CI) for each of the entries shown.

CNC(=O)ON=C(C)SC [Methomyl, methomyl, reference compound] ... 7.55 (4.7–22.5) b ng/mg body weight
CC1(C)C(C=C(Cl)Cl)C1C(=O)OCc1cccc(Oc2ccccc2)c1 (centres unmarked) [Permethrin, reference compound] ... 1.41 (1.08–2.24) a ng/mg body weight

stdin: Please provide the recorded LD90 (95% CI) for CC(C)[C@@H]1CC[C@@H](C)CC1=O , tested on Aedes aegypti.
stdout: 10,000 (8500–13,100) c ng/mg body weight

###

# Tested on: Musca domestica
# cond: 24 h, topical, adult females, susceptible strain
Kindly state LD10 (95% CI) for each of the entries shown.

CC1(C)C(C=C(Cl)Cl)C1C(=O)OCc1cccc(Oc2ccccc2)c1 (stereo not shown) [Permethrin, reference compound] ... 0.46 (0.37–0.56) a ng/mg body weight
CC(C)[C@@H]1CC[C@@H](C)CC1=O [Menthone, L-menthone] ... 5300 (5100–5400) c ng/mg body weight
CC12CCC(C1)C(C)(C)C2=O [Fenchone, L-fenchone] ... 8800 (8100–9400) d ng/mg body weight

Note: attention shifts to another entry.
stdin: Name the reported LD10 (95% CI) value associated with the compound C=C(C)[C@@H]1CC=C(C)C(=O)C1 [Carvone, L-carvone]
stdout: 3300 (3100–3400) b ng/mg body weight

###

# Tested on: Aedes aegypti
# assay-method-text: Co-toxicity assay with permethrin (topical)
# cond: 10 μg synergist per Ae. aegypti
Kindly state 24-h% Mean Mortality ± SEM, Synergist Alone for each of the entries shown.
// unit must come after the numeric part

Reference set, count: 3
C=C(C)[C@@H]1CC=C(C)C(=O)C1 ... 7.5 ± 2.5%
CCCCOCCOCCOCc1cc2c(cc1CCC)OCO2 [PBO, piperonyl butoxide, reference compound] ... 72.5 ± 8.5%
CC(C)[C@@H]1CC[C@@H](C)CC1=O ... 15 ± 5%

Note: attention shifts to another entry.
stdin: Name the reported 24-h% Mean Mortality ± SEM, Synergist Alone value associated with the compound CC12CCC(C1)C(C)(C)C2=O (stereo not shown)
stdout: 2.5 ± 2.5%

###

# Tested on: Aedes aegypti
# cond: 2 μg applied
metric: 48-h% Mean Mortality ± SEM, Synergist Alone (%)
One number for each entry, in %.

Reference set, count: 3
C=C(C)[C@@H]1CC=C(C)C(=O)C1 ... 5
CC12CCC(C1)C(C)(C)C2=O (stereo not shown) ... 7.5
CC(C)[C@@H]1CC[C@@H](C)CC1=O ... 7.5

Note: attention shifts to another entry.
stdin: Name the reported 48-h% Mean Mortality ± SEM, Synergist Alone value associated with the molecule CCCCOCCOCCOCc1cc2c(cc1CCC)OCO2 [PBO, piperonyl butoxide, reference compound]
stdout: 15

###

Kindly state 1-h% Mean Knockdown ± SEM, Mixture for each of the entries shown.
# Tested on: Musca domestica
# assay-method-text: Co-toxicity assay with permethrin (topical)
# Assay type: in vivo
# cond: near-sublethal synergist dose (10.2 μg PBO, 70 μg carvone, 190 μg menthone, 80 μg fenchone) + permethrin 18 ng
One number for each entry, in %.

CC12CCC(C1)C(C)(C)C2=O [Fenchone, L-fenchone] ... 100
C=C(C)[C@@H]1CC=C(C)C(=O)C1 [Carvone, L-carvone] ... 100
CCCCOCCOCCOCc1cc2c(cc1CCC)OCO2 [PBO, piperonyl butoxide, reference compound] ... 96

stdin: Name the reported 1-h% Mean Knockdown ± SEM, Mixture value associated with the molecule CC(C)[C@@H]1CC[C@@H](C)CC1=O [Menthone, L-menthone]
stdout: 95
